Collected pIC50 values appear next to each entry.
Biological target: hNav1.7 (Homo sapiens)
Sequence (Q15858 whole entry): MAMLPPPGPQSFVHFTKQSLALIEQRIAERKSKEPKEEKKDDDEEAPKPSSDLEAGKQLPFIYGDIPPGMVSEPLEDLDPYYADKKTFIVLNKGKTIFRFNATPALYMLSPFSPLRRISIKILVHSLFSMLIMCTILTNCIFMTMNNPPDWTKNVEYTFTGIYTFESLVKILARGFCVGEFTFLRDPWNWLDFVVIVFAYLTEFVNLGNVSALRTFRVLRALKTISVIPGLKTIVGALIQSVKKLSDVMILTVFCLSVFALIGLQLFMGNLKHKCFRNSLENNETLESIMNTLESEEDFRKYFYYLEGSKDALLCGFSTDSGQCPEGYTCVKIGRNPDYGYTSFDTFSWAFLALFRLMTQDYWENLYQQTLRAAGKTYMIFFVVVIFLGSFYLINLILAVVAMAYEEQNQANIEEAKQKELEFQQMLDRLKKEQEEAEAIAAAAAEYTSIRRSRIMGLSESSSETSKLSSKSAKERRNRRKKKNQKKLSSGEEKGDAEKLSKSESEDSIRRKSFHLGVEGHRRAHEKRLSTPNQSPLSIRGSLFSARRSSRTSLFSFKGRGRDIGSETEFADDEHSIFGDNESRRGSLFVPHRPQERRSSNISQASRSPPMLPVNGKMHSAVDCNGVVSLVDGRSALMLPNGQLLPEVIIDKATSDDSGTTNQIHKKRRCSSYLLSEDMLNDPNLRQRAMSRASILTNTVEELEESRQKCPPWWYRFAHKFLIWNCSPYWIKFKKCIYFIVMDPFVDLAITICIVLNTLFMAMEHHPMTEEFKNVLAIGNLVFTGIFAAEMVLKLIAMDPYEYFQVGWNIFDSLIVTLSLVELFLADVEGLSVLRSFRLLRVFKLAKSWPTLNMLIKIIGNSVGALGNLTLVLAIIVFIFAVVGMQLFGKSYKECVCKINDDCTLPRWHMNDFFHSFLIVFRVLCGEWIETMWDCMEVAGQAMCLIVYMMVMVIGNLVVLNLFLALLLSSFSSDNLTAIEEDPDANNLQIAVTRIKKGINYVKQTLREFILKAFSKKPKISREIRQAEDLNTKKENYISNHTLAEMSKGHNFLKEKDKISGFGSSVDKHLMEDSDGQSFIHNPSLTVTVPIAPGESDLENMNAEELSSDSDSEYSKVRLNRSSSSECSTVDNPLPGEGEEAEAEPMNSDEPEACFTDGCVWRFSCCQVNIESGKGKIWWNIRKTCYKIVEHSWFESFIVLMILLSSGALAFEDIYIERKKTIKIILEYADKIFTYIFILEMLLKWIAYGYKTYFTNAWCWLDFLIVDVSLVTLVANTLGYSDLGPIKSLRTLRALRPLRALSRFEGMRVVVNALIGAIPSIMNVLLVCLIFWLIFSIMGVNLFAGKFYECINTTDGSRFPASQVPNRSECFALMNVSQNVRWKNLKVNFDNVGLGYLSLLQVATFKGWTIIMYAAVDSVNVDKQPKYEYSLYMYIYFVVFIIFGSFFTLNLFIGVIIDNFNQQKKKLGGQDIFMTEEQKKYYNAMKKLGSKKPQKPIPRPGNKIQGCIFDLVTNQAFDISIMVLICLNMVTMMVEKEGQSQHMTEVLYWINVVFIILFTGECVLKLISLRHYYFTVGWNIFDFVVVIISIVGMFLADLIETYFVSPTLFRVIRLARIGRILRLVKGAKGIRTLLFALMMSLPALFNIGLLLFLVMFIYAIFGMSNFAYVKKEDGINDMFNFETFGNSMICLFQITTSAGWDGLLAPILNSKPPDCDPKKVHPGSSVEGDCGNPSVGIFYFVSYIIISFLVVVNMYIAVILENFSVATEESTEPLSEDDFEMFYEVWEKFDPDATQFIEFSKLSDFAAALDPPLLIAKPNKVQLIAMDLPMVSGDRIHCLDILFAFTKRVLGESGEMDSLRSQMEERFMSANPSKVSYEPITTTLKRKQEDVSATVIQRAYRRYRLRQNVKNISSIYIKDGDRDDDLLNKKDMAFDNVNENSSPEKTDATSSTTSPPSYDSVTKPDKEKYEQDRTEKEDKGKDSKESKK
Assay: Fluorescent (FRET) based sodium channel assay, hNav1.7
Conditions: HEK293 stably transfected with hNav1.7, 20 μM veratridine, read-out: hNav 1.7 IC50
pIC50: −log10 of the molar value.
Metric: pIC50

> print(dat)
                                   molecule  metric  comparison.operator  data.value
1  CCCCCCCC(O)(C(N)=O)c1cccc(Cl)c1 (racemic) [(±)-1]   pIC50                    =        5.74
2  O=C1NC(=O)C(c2ccccc2)(c2ccccc2)N1 [DPH, Diphenylhydantoin, reference compound]   pIC50                    <        4.00
3  CCCCCCC[C@@](O)(C(N)=O)c1cccc(Cl)c1 [Compound (S)-(+)-1]   pIC50                    =        5.58
4  CCCCCCC[C@](O)(C(N)=O)c1cccc(Cl)c1 [Compound (R)-(−)-1]   pIC50                    =        5.73

---

Listing: % inhibition for hERG assay, 10 μM of selected molecules
Target: hERG potassium channels (Homo sapiens)
Construct: expressed in transfected cells; host or cells: HEK-293 (membranes)
Sequence (Q12809 whole entry): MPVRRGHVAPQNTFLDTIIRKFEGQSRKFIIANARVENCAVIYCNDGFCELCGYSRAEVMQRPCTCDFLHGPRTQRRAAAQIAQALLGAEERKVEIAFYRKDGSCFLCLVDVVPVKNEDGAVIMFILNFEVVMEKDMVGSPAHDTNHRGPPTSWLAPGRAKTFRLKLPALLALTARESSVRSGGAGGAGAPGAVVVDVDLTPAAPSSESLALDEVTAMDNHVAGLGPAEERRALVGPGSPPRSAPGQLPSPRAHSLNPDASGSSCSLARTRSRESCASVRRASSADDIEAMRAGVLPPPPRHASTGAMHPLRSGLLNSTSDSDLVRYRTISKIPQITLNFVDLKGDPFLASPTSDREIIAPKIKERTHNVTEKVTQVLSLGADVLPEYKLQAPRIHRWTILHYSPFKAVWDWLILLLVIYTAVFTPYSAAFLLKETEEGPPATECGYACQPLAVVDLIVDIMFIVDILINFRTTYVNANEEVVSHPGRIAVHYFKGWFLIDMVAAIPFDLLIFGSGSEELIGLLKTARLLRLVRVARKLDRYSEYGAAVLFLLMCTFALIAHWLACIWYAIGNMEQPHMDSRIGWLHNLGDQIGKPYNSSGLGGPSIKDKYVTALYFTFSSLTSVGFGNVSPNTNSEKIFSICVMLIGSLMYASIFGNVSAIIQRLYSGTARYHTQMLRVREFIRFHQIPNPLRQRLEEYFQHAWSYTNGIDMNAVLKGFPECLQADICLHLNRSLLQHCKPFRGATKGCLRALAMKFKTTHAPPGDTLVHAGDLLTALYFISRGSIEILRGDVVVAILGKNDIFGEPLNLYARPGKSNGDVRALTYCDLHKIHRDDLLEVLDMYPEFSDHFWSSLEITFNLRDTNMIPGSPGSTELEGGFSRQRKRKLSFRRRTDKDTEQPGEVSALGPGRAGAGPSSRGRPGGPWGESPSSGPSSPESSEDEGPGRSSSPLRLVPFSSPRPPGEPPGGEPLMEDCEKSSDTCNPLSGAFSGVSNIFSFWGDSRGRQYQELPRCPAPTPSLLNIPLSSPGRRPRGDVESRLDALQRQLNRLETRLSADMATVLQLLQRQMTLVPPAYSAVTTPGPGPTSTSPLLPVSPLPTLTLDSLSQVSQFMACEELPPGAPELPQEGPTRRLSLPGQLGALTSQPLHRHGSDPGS
Experiment: hERG binding assay ([35S]MK-499 displacement)
Settings: 10 μM; [35S]MK-499, HEK-293 hERG membranes
Metric: % inhibition for hERG assay, 10 μM (%)

> print(dat)
                                   molecule  value.units  data.value
1  CCCCCCCC(O)(C(N)=O)c1cccc(Cl)c1 (racemic) [(±)-1]            %          51
2  CCCCCCC[C@](O)(C(N)=O)c1cccc(Cl)c1 [Compound (R)-(−)-1]            %          57
3  CCCCCCC[C@@](O)(C(N)=O)c1cccc(Cl)c1 [Compound (S)-(+)-1]            %          65
4  O=C1NC(=O)C(c2ccccc2)(c2ccccc2)N1 [DPH, Diphenylhydantoin, reference compound]            %          17

---

System: site 2 of the VGSC
Assay: [3H]-BTX-B displacement assay at site 2
Assay type: binding, rat
Conditions: Screen at 40 μM, 2 replicates, referenced to Aconitine
# [3H]-BTX-B Binding Data, Displacement % per entry
Metric: [3H]-BTX-B Binding Data, Displacement % (%)

> print(dat)
                                   compound                                   metric  value.units  data.value
1  C=CCCCCCC1(c2cccc(Cl)c2)NC(=O)N(Cc2ccccc2)C1=O (stereo not shown)  [3H]-BTX-B Binding Data, Displacement %            %          23
2  C=CCCCCCC1(c2cccc(Cl)c2)NC(=O)NC1=O (stereo not shown)  [3H]-BTX-B Binding Data, Displacement %            %          79
3  O=C1NC(=O)C(CCCCCC2CO2)(c2cccc(Cl)c2)N1 (stereo not shown)  [3H]-BTX-B Binding Data, Displacement %            %          28
4              C#C/C(=C\CCCCCC)c1cccc(Cl)c1  [3H]-BTX-B Binding Data, Displacement %            %          32

---

Molecular target: human Nav1.2 (Homo sapiens)
Construct: host or cells: HEK
Sequence (Q99250 whole entry): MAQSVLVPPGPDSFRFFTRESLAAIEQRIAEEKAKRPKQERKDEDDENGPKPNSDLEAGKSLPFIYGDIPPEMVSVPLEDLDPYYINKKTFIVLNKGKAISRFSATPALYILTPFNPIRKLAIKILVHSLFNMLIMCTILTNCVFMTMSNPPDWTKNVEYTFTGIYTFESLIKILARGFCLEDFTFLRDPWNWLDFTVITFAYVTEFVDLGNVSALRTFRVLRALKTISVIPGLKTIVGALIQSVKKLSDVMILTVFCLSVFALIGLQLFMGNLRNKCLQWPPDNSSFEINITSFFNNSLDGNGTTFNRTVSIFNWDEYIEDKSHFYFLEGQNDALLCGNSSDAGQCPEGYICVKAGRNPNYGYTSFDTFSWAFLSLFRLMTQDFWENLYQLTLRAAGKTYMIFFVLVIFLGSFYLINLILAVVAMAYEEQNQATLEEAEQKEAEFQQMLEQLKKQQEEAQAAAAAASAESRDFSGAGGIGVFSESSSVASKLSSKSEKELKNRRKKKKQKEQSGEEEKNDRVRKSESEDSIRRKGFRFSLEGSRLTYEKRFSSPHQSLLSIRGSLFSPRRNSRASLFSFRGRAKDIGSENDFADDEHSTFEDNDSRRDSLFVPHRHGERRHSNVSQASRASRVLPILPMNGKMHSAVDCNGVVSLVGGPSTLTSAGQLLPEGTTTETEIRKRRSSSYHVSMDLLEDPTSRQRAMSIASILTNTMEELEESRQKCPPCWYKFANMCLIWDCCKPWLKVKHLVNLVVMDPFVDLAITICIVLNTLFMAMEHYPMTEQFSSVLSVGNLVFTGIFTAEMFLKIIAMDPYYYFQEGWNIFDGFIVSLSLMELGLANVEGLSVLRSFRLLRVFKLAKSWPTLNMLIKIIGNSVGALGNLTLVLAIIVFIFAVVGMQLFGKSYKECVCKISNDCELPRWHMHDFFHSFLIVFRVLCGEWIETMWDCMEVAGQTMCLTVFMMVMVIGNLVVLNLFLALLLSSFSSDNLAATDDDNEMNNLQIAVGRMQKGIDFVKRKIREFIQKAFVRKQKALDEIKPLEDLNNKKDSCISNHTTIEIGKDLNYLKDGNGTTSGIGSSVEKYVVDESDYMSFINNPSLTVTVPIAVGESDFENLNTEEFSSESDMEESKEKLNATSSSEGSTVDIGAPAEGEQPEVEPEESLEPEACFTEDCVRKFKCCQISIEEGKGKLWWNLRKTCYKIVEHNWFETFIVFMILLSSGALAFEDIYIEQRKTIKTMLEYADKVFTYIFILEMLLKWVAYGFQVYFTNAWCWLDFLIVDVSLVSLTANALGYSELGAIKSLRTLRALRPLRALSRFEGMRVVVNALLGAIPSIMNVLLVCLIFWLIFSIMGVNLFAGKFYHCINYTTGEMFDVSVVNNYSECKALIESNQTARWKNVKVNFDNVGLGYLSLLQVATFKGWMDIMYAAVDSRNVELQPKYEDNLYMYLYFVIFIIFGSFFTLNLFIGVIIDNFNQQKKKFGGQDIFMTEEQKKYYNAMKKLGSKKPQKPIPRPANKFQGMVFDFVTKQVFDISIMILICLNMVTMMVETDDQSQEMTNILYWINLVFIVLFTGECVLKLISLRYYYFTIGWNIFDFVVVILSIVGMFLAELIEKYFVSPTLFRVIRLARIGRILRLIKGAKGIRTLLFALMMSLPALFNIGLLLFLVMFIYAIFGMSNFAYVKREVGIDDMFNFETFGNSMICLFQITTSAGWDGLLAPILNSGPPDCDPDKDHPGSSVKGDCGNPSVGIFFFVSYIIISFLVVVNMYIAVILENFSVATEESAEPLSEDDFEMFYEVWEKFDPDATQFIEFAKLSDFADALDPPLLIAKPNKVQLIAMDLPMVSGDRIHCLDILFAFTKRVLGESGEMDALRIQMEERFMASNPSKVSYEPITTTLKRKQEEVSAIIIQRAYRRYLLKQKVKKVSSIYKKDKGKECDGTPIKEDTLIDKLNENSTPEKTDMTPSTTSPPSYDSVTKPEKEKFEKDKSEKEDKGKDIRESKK
Test: Sodium channel electrophysiology of hermitamides (patch clamp)
Format: cell-based
Settings: 10 μM; HEK human Nav1.2
Procedure: To test whether these compounds were functionally active as sodium channel blockers, the effects of the hermitamides were tested on human embryonic kidney cells (HEK) cells stably expressing human Nav1.2 using the […]. […] Sodium currents were recorded using the whole-cell configuration of the patch clamp recording technique with an Axopatch 200 amplifier (Axon Instruments, Foster City, Calif.). […]
Metric: Patch-clamp percentage block, 10 μM

> print(dat)
                                   compound        data.value
1  CCCCCCC[C@@H](C/C=C/CCC(=O)NCCc1ccccc1)OC (racemic) [rac-hermitamide A]  90.2 ± 2.5 (3) %
2  CCCCCCC[C@@H](C/C=C/CCC(=O)NCCc1c[nH]c2ccccc12)OC [(S)-hermitamide B]         100 (3) %
3  CCCCCCC[C@@H](C/C=C/CCC(=O)O)OC [(S)-lyngbic acid, (7S,4E)-Methoxytetradecenoic Acid]  44.4 ± 0.3 (4) %
4  CCCCCCC[C@@H](C/C=C/CCC(=O)NCCc1ccccc1)OC [(S)-hermitamide A, Phenethyl (7S,4E)-methoxytetradecenamide]  94.4 ± 1.3 (4) %
5  CCCCCCC[C@@H](C/C=C/CCC(=O)NCCc1c[nH]c2ccccc12)OC (racemic) [rac-hermitamide B]         100 (1) %
